These data points were gathered from ChEMBL document CHEMBL1130786.

# assayed-target: Macrophage metalloelastase (Mus musculus)
# Sequence (P34960 whole entry): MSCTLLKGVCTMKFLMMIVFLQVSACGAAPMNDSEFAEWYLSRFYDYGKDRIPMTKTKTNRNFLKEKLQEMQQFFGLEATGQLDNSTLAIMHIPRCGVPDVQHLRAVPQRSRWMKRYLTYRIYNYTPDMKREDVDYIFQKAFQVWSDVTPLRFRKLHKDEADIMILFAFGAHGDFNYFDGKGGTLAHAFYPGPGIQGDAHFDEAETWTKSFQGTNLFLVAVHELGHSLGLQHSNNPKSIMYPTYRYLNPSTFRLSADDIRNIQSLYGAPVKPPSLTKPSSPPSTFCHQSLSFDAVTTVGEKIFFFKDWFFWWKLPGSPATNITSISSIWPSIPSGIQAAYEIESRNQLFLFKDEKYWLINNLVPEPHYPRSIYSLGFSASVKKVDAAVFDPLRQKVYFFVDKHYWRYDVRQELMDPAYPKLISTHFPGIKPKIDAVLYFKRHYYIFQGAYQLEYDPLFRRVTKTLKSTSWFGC
# method-summary: Inhibitory activity against mouse macrophage metalloelastase (MME) at 100 nM concentration using [3H]elastin as a substrate
measurement-label: inhibition (%)

For orientation, consider the following solved cases.
compound	assayed-target	value-units	inhibition
COc1ccc(S(=O)(=O)N(CC(=O)NO)Cc2ccccc2)cc1	Macrophage metalloelastase (Mus musculus)	%	74
COc1ccc(S(=O)(=O)N(CCC(C)C)CC(=O)NO)cc1	Macrophage metalloelastase (Mus musculus)	%	11
COc1ccc(S(=O)(=O)N(CC(=O)NO)Cc2ccc3ccccc3n2)cc1	Macrophage metalloelastase (Mus musculus)	%	50
COc1ccc(S(=O)(=O)NCC(=O)NO)cc1	Macrophage metalloelastase (Mus musculus)	%	0
CCOCCOc1ccc(S(=O)(=O)N(CC(=O)NO)CC(C)C)cc1	Macrophage metalloelastase (Mus musculus)	%	69

[a] COc1ccc(S(=O)(=O)N(CC(=O)NO)CC(C)C)cc1
[b] CCC(C)N(CC(=O)NO)S(=O)(=O)c1ccc(OC)cc1 (configuration not stated)
[c] COc1ccc(S(=O)(=O)N(CC(=O)NO)C2CCCCC2)cc1
[d] COc1ccc(S(=O)(=O)N(CC(=O)NO)C(C)C)cc1
Reorder: inhibition, max to min. Could you list the labels in the order requested?
a, b, c, d

* * *

pIC50: −log10 of the molar value.
Form: system (Macrophage metalloelastase (Mus musculus)), quantity (pIC50), values below.
measurement-label: pIC50

# example entries with known answers
molecule	pIC50
COc1ccc(S(=O)(=O)N(Cc2ccccc2)C(C(=O)NO)C(C)C)cc1 (configuration not stated)	7.80
CC[C@@H](C)C[C@H](C(=O)NO)N(Cc1ccccc1)S(=O)(=O)c1ccc(OC)cc1	8.32

[A] COc1ccc(S(=O)(=O)N(Cc2ccccn2)[C@H](CC(C)C)C(=O)NO)cc1
[B] COc1ccc(S(=O)(=O)N(Cc2ccccc2)C(C)C(=O)NO)cc1 (configuration not stated)
[C] COc1ccc(S(=O)(=O)N(Cc2ccccc2)[C@H](CCCCNC(=O)Oc2ccccc2)C(=O)NO)cc1
Number of molecules to sort: 3. Sort criterion: pIC50, ascending. // rank by listing labels in the order requested
C, B, A

* * *

# assayed-target: Macrophage metalloelastase (Mus musculus) (UniProt P34960)
# Sequence (P34960 110-473 limits assumed): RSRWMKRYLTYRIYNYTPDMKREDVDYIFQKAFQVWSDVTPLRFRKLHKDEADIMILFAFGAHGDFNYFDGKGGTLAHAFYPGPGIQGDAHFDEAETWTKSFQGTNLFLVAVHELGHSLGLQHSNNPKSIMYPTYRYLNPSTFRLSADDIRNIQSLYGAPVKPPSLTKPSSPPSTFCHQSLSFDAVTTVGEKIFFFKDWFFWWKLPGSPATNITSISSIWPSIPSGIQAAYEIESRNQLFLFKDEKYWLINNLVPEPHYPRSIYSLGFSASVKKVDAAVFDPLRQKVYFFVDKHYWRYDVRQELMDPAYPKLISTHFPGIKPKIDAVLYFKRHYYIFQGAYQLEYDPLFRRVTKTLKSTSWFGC
# method-summary: Inhibitory activity against mouse macrophage metalloelastase (MME) at 100 nM concentration using [3H]elastin as a substrate
measurement-label: inhibition (%)

smiles-text	value-units	inhibition
COc1ccc(S(=O)(=O)N(CCCCc2ccccc2)CC(=O)NO)cc1	%	83
COc1ccc(S(=O)(=O)N(CCC2CCCCC2)CC(=O)NO)cc1	%	79
COc1ccc(S(=O)(=O)N(CC(=O)NO)Cc2ccc(C)cc2)cc1	%	82
COc1ccc(S(=O)(=O)N(CC(=O)NO)Cc2ccc(Cl)cc2)cc1	%	76
CC(C)CN(CC(=O)NO)S(=O)(=O)c1ccc(F)cc1	%	22
COc1ccc(S(=O)(=O)N(CCc2ccccc2)CC(=O)NO)cc1	%	88
COc1ccc(S(=O)(=O)N(CC(=O)NO)CC2CCCCC2)cc1	%	77
COc1ccc(S(=O)(=O)N(CC(=O)NO)Cc2ccc(-c3ccccc3)cc2)cc1	%	86
COc1ccc(S(=O)(=O)N(CC(=O)NO)Cc2cccnc2)cc1	%	80
COc1ccc(S(=O)(=O)N(CC(=O)NO)Cc2ccncc2)cc1	%	92
CC(C)CN(CC(=O)NO)S(=O)(=O)c1ccccc1	%	27
CC(C)CN(CC(=O)NO)S(=O)(=O)c1ccc(Cl)cc1	%	68
CC(C)CN(CC(=O)NO)S(=O)(=O)c1ccc(N)cc1	%	22
CC(C)CN(CC(=O)NO)S(=O)(=O)c1ccc(N(C)C)cc1	%	34
COc1ccc(S(=O)(=O)N(CC(=O)NO)Cc2ccccn2)cc1	%	88
COc1ccc(S(=O)(=O)N(CC(=O)NO)Cc2cccc(OC)c2)cc1	%	75
COc1ccc(CN(CC(=O)NO)S(=O)(=O)c2ccc(OC)cc2)cc1	%	89
Cc1ccc(S(=O)(=O)N(CC(=O)NO)CC(C)C)cc1	%	56
